B1: GFP-WT-HOOK3 [human] / GM130 (endogenous) [human (endogenous in HeLa)] (parent)
chain 1: MFSVESLERAELCESLLTWIQTFNVDAPCQTVEDLTNGVVMAQVLQKIDPAYFDENWLNRIKTEVGDNWRLKISNLKKILKGILDYNHEILGQQINDFTLPDVNLIGEHSDAAELGRMLQLILGCAVNCEQKQEYIQAIMMMEESVQHVVMTAIQELMSKESPVSAGNDAYVDLDRQLKKTTEELNEALSAKEEIAQRCHELDMQVAALQEEKSSLLAENQVLMERLNQSDSIEDPNSPAGRRHLQLQTQLEQLQEETFRLEAAKDDYRIRCEELEKEISELRQQNDELTTLADEAQSLKDEIDVLRHSSDKVSKLEGQVESYKKKLEDLGDLRRQVKLLEEKNTMYMQNTVSLEEELRKANAARSQLETYKRQVVELQNRLSEESKKADKLDFEYKRLKEKVDSLQKEKDRLRTERDSLKETIEELRCVQAQEGQLTTQGLMPLGSQESSDSLAAEIVTPEIREKLIRLQHENKMLKLNQEGSDNEKIALLQSLLDDANLRKNELETENRLVNQRLLEVQSQVEELQKSLQDQGSKAEDSVLLKKKLEEHLEKLHEANNELQKKRAIIEDLEPRFNNSSLKIEELQEALRKKEEEMKQMEERYKKYLEKAKSVIRTLDPKQNQGAAPEIQALKNQLQERDRLFHSLEKEYEKTKSQREMEEKYIVSAWYNMGMTLHKKAAEDRLASTGSGQSFLARQRQATSSRRSYPGHVQPATAR
chain 2: MWPQPRLPPRPAMSEETRQSKLAAAKKKLREYQQRNSPGVPTGAKKKKKIKNGSNPETTTSGGCHSPEDTPKDNAATLQPSDDTVLPGGVPSPGASLTSMAASQNHDADNVPNLMDETKTFSSTESLRQLSQQLNGLVCESATCVNGEGPASSANLKDLESRYQQLAVALDSSYVTNKQLNITIEKLKQQNQEITDQLEEEKKECHQKQGALREQLQVHIQTIGILVSEKAELQTALAHTQHAARQKEGESEDLASRLQYSRRRVGELERALSAVSTQQKKADRYNKELTKERDALRLELYKNTQSNEDLKQEKSELEEKLRVLVTEKAGMQLNLEELQKKLEMTELLLQQFSSRCEAPDANQQLQQAMEERAQLEAHLGQVMESVRQLQMERDKYAENLKGESAMWRQRMQQMSEQVHTLREEKECSMSRVQELETSLAELRNQMAEPPPPEPPAGPSEVEQQLQAEAEHLRKELEGLAGQLQAQVQDNEGLSRLNREQEERLLELERAAELWGEQAEARRQILETMQNDRTTISRALSQNRELKEQLAELQSGFVKLTNENMEITSALQSEQHVKRELGKKLGELQEKLSELKETVELKSQEAQSLQQQRDQYLGHLQQYVAAYQQLTSEKEVLHNQLLLQTQLVDQLQQQEAQGKAVAEMARQELQETQERLEAATQQNQQLRAQLSLMAHPGEGDGLDREEEEDEEEEEEEAVAVPQPMPSIPEDLESREAMVAFFNSAVASAEEEQARLRGQLKEQRVRCRRLAHLLASAQKEPEAAAPAPGTGGDSVCGETHRALQGAMEKLQSRFMELMQEKADLKERVEELEHRCIQLSGETDTIGEYIALYQSQRAVLKERHREKEEYISRLAQDKEEMKVKLLELQELVLRLVGDRNEWHGRFLAAAQNPADEPTSGAPAPQELGAANQQGDLCEVSLAGSVEPAQGEAREGSPRDNPTAQQIMQLLREMQNPRERPGLGSNPCIPFFYRADENDEVKITVI

variants of: B1; test: coIP (co-immunoprecipitation, blot band intensity quantified); settings: with GM130 (endogenous) [human (endogenous in HeLa)]; HeLa cells, 100 ng/mL nocodazole for 16 hr (+); read off a plot
Measured response accompanies every entry in the list below.
Use A.U as the unit, but write only the number.

> print(dat)
      sequence.variant  numeric.result
1        chain 1 S238A              16
2        chain 1 S707E              11
3        chain 1 S707A              16
4  chain 1 S238A S707A             5.5

Data request: Answer with reported response of chain 1 S238E
Data returned: 12

Data request: Answer with reported response of chain 1 S238E S707E
Data returned: 6.5

The values you see were collected from paper PMC8215223.
